These measurements were taken from the NIST ThermoML archive (doi:10.1016/j.fluid.2014.06.021).

protocol_text: activity coefficient (dimensionless); of the first substance listed, at infinite dilution; xn = mol fraction of the nth substance listed
condition_details: 333.15 K; 101.33 kPa; Liquid; Chromatography; x1 = 0
Field: label. Allowed values: t (activity coefficient < 0.7) or f (activity coefficient >= 0.7).

Recorded results for 5 compounds are shown here.
{"compound": "CC(C)O [propan-2-ol] + C[n+]1ccn(CCCCS(=O)(=O)O)c1.O=S(=O)([N-]S(=O)(=O)C(F)(F)F)C(F)(F)F", "assigned_category": "t"}
{"compound": "c1ccsc1 [thiophene] + C[n+]1ccn(CCCCS(=O)(=O)O)c1.O=S(=O)([O-])O", "assigned_category": "f"}
{"compound": "CCCC(C)=O [pentan-2-one] + C[n+]1ccn(CCCCS(=O)(=O)O)c1.O=S(=O)([N-]S(=O)(=O)C(F)(F)F)C(F)(F)F", "assigned_category": "t"}
{"compound": "CCCCCCCCCC [decane] + C[n+]1ccn(CCCCS(=O)(=O)O)c1.O=S(=O)([N-]S(=O)(=O)C(F)(F)F)C(F)(F)F", "assigned_category": "f"}
{"compound": "Cc1cccc(C)c1 [1,3-dimethylbenzene] + C[n+]1ccn(CCCCS(=O)(=O)O)c1.O=S(=O)([O-])O", "assigned_category": "f"}

*Q* Consider CCCC(C)=O [pentan-2-one] + C[n+]1ccn(CCCCS(=O)(=O)O)c1.O=S(=O)([O-])C(F)(F)F . Does its activity coefficient lie strictly below 0.7?
*A* f

###

protocol_text: activity coefficient (dimensionless); of the first substance listed, at infinite dilution; xn = mol fraction of the nth substance listed
condition_details: 323.15 K; 101.33 kPa; Liquid; Chromatography; x1 = 0
result_type: activity coefficient
The reply should be a number, written without any unit.

Sample records with activity coefficient:
{"molecule": "CCC[N+](=O)[O-] [1-nitropropane] + C[n+]1ccn(CCCCS(=O)(=O)O)c1.O=S(=O)([N-]S(=O)(=O)C(F)(F)F)C(F)(F)F", "activity coefficient": 1.17}
{"molecule": "C[N+](=O)[O-] [nitromethane] + C[n+]1ccn(CCCCS(=O)(=O)O)c1.O=S(=O)([O-])O", "activity coefficient": 1.58}
{"molecule": "CCCCCCCCCCCCC [tridecane] + C[n+]1ccn(CCCCS(=O)(=O)O)c1.O=S(=O)([O-])O", "activity coefficient": 1540}
{"molecule": "C[N+](=O)[O-] [nitromethane] + C[n+]1ccn(CCCCS(=O)(=O)O)c1.O=S(=O)([O-])C(F)(F)F", "activity coefficient": 0.72}

Then there is this molecule:
Per the record, CCCCCCCCCCCCCC [tetradecane] + C[n+]1ccn(CCCCS(=O)(=O)O)c1.O=S(=O)([N-]S(=O)(=O)C(F)(F)F)C(F)(F)F has activity coefficient of 1180

###

protocol_text: activity coefficient (dimensionless); of the first substance listed, at infinite dilution; xn = mol fraction of the nth substance listed
condition_details: 343.15 K; 101.33 kPa; Liquid; Chromatography; x1 = 0
activity coefficient values by entry
The reply should be a number, written without any unit.

{"compound": "CCCC(C)=O [pentan-2-one] + C[n+]1ccn(CCCCS(=O)(=O)O)c1.O=S(=O)([O-])O", "result_type": "activity coefficient", "value": 12.5}

Per the record, ClCCl [dichloromethane] + C[n+]1ccn(CCCCS(=O)(=O)O)c1.O=S(=O)([O-])C(F)(F)F has activity coefficient of 1.61

Per the record, CCCCCCCCCCCC [dodecane] + C[n+]1ccn(CCCCS(=O)(=O)O)c1.O=S(=O)([N-]S(=O)(=O)C(F)(F)F)C(F)(F)F has activity coefficient of 557

Per the record, CC#N [acetonitrile] + C[n+]1ccn(CCCCS(=O)(=O)O)c1.O=S(=O)([N-]S(=O)(=O)C(F)(F)F)C(F)(F)F has activity coefficient of 0.45

###

protocol_text: activity coefficient (dimensionless); of the first substance listed, at infinite dilution; xn = mol fraction of the nth substance listed
condition_details: 343.15 K; 101.33 kPa; Liquid; Chromatography; x1 = 0
Categorized via activity coefficient: 1 = under 2, 2 = from 2 up to 10, 3 = 10 and over

Recorded results for 3 compounds are shown here.
{"compound": "CC(C)O [propan-2-ol] + C[n+]1ccn(CCCCS(=O)(=O)O)c1.O=S(=O)([N-]S(=O)(=O)C(F)(F)F)C(F)(F)F", "assigned_category": 1}
{"compound": "CCC(C)=O [butanone] + C[n+]1ccn(CCCCS(=O)(=O)O)c1.O=S(=O)([N-]S(=O)(=O)C(F)(F)F)C(F)(F)F", "assigned_category": 1}
{"compound": "c1ccsc1 [thiophene] + C[n+]1ccn(CCCCS(=O)(=O)O)c1.O=S(=O)([N-]S(=O)(=O)C(F)(F)F)C(F)(F)F", "assigned_category": 1}

*Q* Into which bin does this compound go? CCc1ccccc1 [ethylbenzene] + C[n+]1ccn(CCCCS(=O)(=O)O)c1.O=S(=O)([O-])O
*A* 3

*Q* Into which bin does this compound go? ClC(Cl)Cl [trichloromethane] + C[n+]1ccn(CCCCS(=O)(=O)O)c1.O=S(=O)([N-]S(=O)(=O)C(F)(F)F)C(F)(F)F
*A* 1

*Q* Into which bin does this compound go? C#CCCCC [1-hexyne] + C[n+]1ccn(CCCCS(=O)(=O)O)c1.O=S(=O)([O-])C(F)(F)F
*A* 3

###

protocol_text: activity coefficient (dimensionless); of the first substance listed, at infinite dilution; xn = mol fraction of the nth substance listed
condition_details: 323.15 K; 101.33 kPa; Liquid; Chromatography; x1 = 0
activity coefficient values by entry

Sample records with activity coefficient:
{"compound": "C1CCCCCC1 [cycloheptane] + C[n+]1ccn(CCCCS(=O)(=O)O)c1.O=S(=O)([O-])C(F)(F)F", "value": 225}
{"compound": "C#CCCCC [1-hexyne] + C[n+]1ccn(CCCCS(=O)(=O)O)c1.O=S(=O)([O-])C(F)(F)F", "value": 15.5}
{"compound": "Cc1ccccc1 [toluene] + C[n+]1ccn(CCCCS(=O)(=O)O)c1.O=S(=O)([O-])O", "value": 28.3}

Per the record, c1ccccc1 [benzene] + C[n+]1ccn(CCCCS(=O)(=O)O)c1.O=S(=O)([O-])C(F)(F)F has activity coefficient of 3.36

###

protocol_text: activity coefficient (dimensionless); of the first substance listed, at infinite dilution; xn = mol fraction of the nth substance listed
condition_details: 343.15 K; 101.33 kPa; Liquid; Chromatography; x1 = 0
activity coefficient values by entry
The reply should be a number, written without any unit.

Sample records with activity coefficient:
{"molecule": "ClC(Cl)Cl [trichloromethane] + C[n+]1ccn(CCCCS(=O)(=O)O)c1.O=S(=O)([O-])C(F)(F)F", "activity coefficient": 2.19}
{"molecule": "CCC[N+](=O)[O-] [1-nitropropane] + C[n+]1ccn(CCCCS(=O)(=O)O)c1.O=S(=O)([N-]S(=O)(=O)C(F)(F)F)C(F)(F)F", "activity coefficient": 1.18}
{"molecule": "c1ccccc1 [benzene] + C[n+]1ccn(CCCCS(=O)(=O)O)c1.O=S(=O)([O-])O", "activity coefficient": 12.2}

Per the record, CCCCCCCCCCCC [dodecane] + C[n+]1ccn(CCCCS(=O)(=O)O)c1.O=S(=O)([O-])O has activity coefficient of 1140

Per the record, Cc1ccc(C)cc1 [1,4-dimethylbenzene] + C[n+]1ccn(CCCCS(=O)(=O)O)c1.O=S(=O)([O-])C(F)(F)F has activity coefficient of 9.52

Per the record, CCc1ccccc1 [ethylbenzene] + C[n+]1ccn(CCCCS(=O)(=O)O)c1.O=S(=O)([O-])C(F)(F)F has activity coefficient of 10.3

Per the record, CCCCCCCCCCCCC [tridecane] + C[n+]1ccn(CCCCS(=O)(=O)O)c1.O=S(=O)([N-]S(=O)(=O)C(F)(F)F)C(F)(F)F has activity coefficient of 832

Per the record, c1ccccc1 [benzene] + C[n+]1ccn(CCCCS(=O)(=O)O)c1.O=S(=O)([O-])C(F)(F)F has activity coefficient of 3.2

Per the record, CCCCCCCCCC [decane] + C[n+]1ccn(CCCCS(=O)(=O)O)c1.O=S(=O)([N-]S(=O)(=O)C(F)(F)F)C(F)(F)F has activity coefficient of 281

Per the record, CC#N [acetonitrile] + C[n+]1ccn(CCCCS(=O)(=O)O)c1.O=S(=O)([O-])O has activity coefficient of 1.73

Per the record, CCCCCCCCCCC [undecane] + C[n+]1ccn(CCCCS(=O)(=O)O)c1.O=S(=O)([N-]S(=O)(=O)C(F)(F)F)C(F)(F)F has activity coefficient of 425

Per the record, Cc1ccccc1 [toluene] + C[n+]1ccn(CCCCS(=O)(=O)O)c1.O=S(=O)([N-]S(=O)(=O)C(F)(F)F)C(F)(F)F has activity coefficient of 3.31
